B1: TPR t1 (parent)
chain: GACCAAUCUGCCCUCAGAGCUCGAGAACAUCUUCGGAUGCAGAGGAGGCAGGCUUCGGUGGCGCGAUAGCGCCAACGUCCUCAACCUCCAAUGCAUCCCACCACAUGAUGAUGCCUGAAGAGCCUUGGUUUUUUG

# Variants of: B1
# TEST SUMMARY: polymerase ribozyme fitness, log enrichment relative to wild type (log ratio); higher = more active; in vitro selection for triplet polymerase activity
MEASUREMENT TYPE: polymerase ribozyme fitness (log ratio)
One number for each entry.

Recorded polymerase ribozyme fitness (log ratio), per entry:
input: If you can, please state the reported polymerase ribozyme fitness (log ratio) value of C15U C53G C64A C104A C124U .
output: -6.1

input: # query: polymerase ribozyme fitness (log ratio) of entry U14G G60U G61A
output: -3.09

input: // polymerase ribozyme fitness (log ratio) lookup, key: G19U U54G A68G C70G G117C
output: -5.56

input: Quick one: polymerase ribozyme fitness (log ratio) of C31U G71U G120U ?
output: -4.2

input: Name the reported polymerase ribozyme fitness (log ratio) value associated with the variant G47U A66C A95C
output: -4.27

Dear reader, for each entry below, please note its polymerase ribozyme fitness (log ratio).
1. C15U C79A
2. A5C G44A A111U
3. C56A C70G
4. U9C G25A
5. C15U C28U A68G G110A
6. A41U G63C A95C

output:
[-2.26, -5.64, -3.6, -6.01, -2.39, -3.24]

# batch size: 8; output polymerase ribozyme fitness (log ratio) per entry
1. G48A C82U U92A G110U
2. G47C C53U C70A C124A
3. A16C G42U G57C A118U
4. G61A G135A
5. C102G U112A
6. G61A A91C
7. C12A U54A G113C U125G
8. A83C C97A

output:
[-6.7, -1.6, -2.43, -1.88, -5.7, -0.737, -3.66, -3.66]
